Where do these numbers come from? They come from ChEMBL document CHEMBL4699506.

Property: MIC; scope: individual molecules
Test system: Staphylococcus epidermidis
Experiment: Antibacterial activity against Staphylococcus epidermidis assessed as reduction in bacterial growth after 24 hrs by two-fold serial dilution method
Format: functional

Worked examples, 2 molecules total:
                                 itemsmiles         val
0  COc1cc2c(=O)c(-c3cc(Cl)c(O)c(Cl)c3)coc2c(Cl)c1O  > 50 µg/mL
1  O=c1c(-c2ccc(O)cc2)coc2c(Cl)c(O)c(O)c(Cl)c12  > 50 µg/mL

Input line: // returns reported MIC for input "COc1cc2c(=O)c(-c3cc(Cl)c(O)c(Cl)c3)coc2cc1O"
Output line: > 50 µg/mL
